- study target: biotinylated CD59 (Homo sapiens)
- Construct: Recombinant soluble human CD59 with an additional C-terminal cysteine residue
- Sequence (P13987 26-102 limits assumed): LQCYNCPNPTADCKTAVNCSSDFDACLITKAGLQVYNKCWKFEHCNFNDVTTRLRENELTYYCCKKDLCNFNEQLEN
- protocol notes: mRNA-display cyclic peptide screen against CD59-biotin, NGS abundance after 6th selection round
- measurement context: NGS sample Seq I, sheet R6 (6th selection round)
property: Counts (raw counts for peptide sequence), Seq I
Enter a number only.

CFSSRTGTTSV; 39
GRVRTCPVIV; 65
SAWGNRQIKYY; 65

stdin: Lab note: need Counts (raw counts for peptide sequence), Seq I for HQECWARGSRE on biotinylated CD59 (Homo sapiens), anyone have it?
stdout: 68

stdin: Lab note: need Counts (raw counts for peptide sequence), Seq I for PWTWGNRSSVRG on biotinylated CD59 (Homo sapiens), anyone have it?
stdout: 49

stdin: Lab note: need Counts (raw counts for peptide sequence), Seq I for LNPQGHCLLKL on biotinylated CD59 (Homo sapiens), anyone have it?
stdout: 55

stdin: Lab note: need Counts (raw counts for peptide sequence), Seq I for LWWSDFYLCVVVRQRQRQLGRGAE on biotinylated CD59 (Homo sapiens), anyone have it?
stdout: 65

stdin: Lab note: need Counts (raw counts for peptide sequence), Seq I for FIRGNSTSVLC on biotinylated CD59 (Homo sapiens), anyone have it?
stdout: 36

stdin: Lab note: need Counts (raw counts for peptide sequence), Seq I for FIRGNSTSVLY on biotinylated CD59 (Homo sapiens), anyone have it?
stdout: 58

stdin: Lab note: need Counts (raw counts for peptide sequence), Seq I for GRLNECHVIRP on biotinylated CD59 (Homo sapiens), anyone have it?
stdout: 43

====

# Lookup of reported Percentage of the pool, averaged across the two sequencing samples keyed by entry
- study target: biotinylated CD59 (Homo sapiens, UniProt P13987)
- Construct: Recombinant soluble human CD59 with an additional C-terminal cysteine residue
- Sequence (P13987 26-102 limits assumed): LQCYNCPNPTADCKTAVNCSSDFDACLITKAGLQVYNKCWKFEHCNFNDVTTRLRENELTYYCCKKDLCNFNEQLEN
- protocol notes: mRNA-display cyclic peptide screen against CD59-biotin, NGS abundance after 6th selection round
- measurement context: average of Seq I and Seq II, sheet R6
Numeric only. Scale: %

The examples below pair each entry with its known result.
SWTWGNRSSVLG; 0.012
WRDRFDQCAL; 0.015
TLSTNRDLIRLPAAAAAAARTGGG; 0.015
IARGDRNHQFF; 0.012
FVRGDLYSALG; 0.016
TAWGNRQIQYY; 0.016

stdin: Requested read-out: Percentage of the pool, averaged across the two sequencing samples. Entry: SAWGDRQIQYY
stdout: 0.014

stdin: Requested read-out: Percentage of the pool, averaged across the two sequencing samples. Entry: VVHGGKDYQWS
stdout: 0.013

stdin: Requested read-out: Percentage of the pool, averaged across the two sequencing samples. Entry: PWTWGNRSSVRG
stdout: 0.017

stdin: Requested read-out: Percentage of the pool, averaged across the two sequencing samples. Entry: CFTLRVLDVSAV
stdout: 0.017

====

- study target: biotinylated CD59 (Homo sapiens)
- Construct: Recombinant soluble human CD59 with an additional C-terminal cysteine residue
- Sequence (P13987 26-102 limits assumed): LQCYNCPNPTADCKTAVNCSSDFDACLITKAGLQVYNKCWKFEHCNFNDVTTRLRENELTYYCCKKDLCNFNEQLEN
- protocol notes: mRNA-display cyclic peptide screen against CD59-biotin, NGS abundance after 6th selection round
- measurement context: counts normalised by total counts of sample Seq II; percentage of the pool, sheet R6
Criterion: Percentage Seq II strictly less than 0.08%. Met: true. Not met: false.

Completed entries (count: 2):
GRLNECHVIWP; false
CFASRLTIDAV; true

stdin: Criterion: Percentage Seq II strictly below 0.08%. Is it met by CFAGRLTTDAV ?
stdout: true

stdin: Criterion: Percentage Seq II strictly below 0.08%. Is it met by FITGNRDHTRG ?
stdout: true

stdin: Criterion: Percentage Seq II strictly below 0.08%. Is it met by QFAHRISSCAS ?
stdout: true

stdin: Criterion: Percentage Seq II strictly below 0.08%. Is it met by CFYQRTLGTTAS ?
stdout: true

stdin: Criterion: Percentage Seq II strictly below 0.08%. Is it met by FVRGDPYSVLG ?
stdout: true

stdin: Criterion: Percentage Seq II strictly below 0.08%. Is it met by QWNRWYGMDER ?
stdout: false

stdin: Criterion: Percentage Seq II strictly below 0.08%. Is it met by YLSGSSNFTRG ?
stdout: true

stdin: Criterion: Percentage Seq II strictly below 0.08%. Is it met by CAWGNRHTAYY ?
stdout: true

stdin: Criterion: Percentage Seq II strictly below 0.08%. Is it met by YARGDASHTIW ?
stdout: true

stdin: Criterion: Percentage Seq II strictly below 0.08%. Is it met by CFRFRLNATSS ?
stdout: true

stdin: Criterion: Percentage Seq II strictly below 0.08%. Is it met by LCAENPLRPR ?
stdout: true

====

- study target: CD59 (Homo sapiens, UniProt P13987)
- Construct: Recombinant soluble human CD59 with an additional C-terminal cysteine residue
- protocol notes: SPR (Biacore S200) binding to immobilised biotinylated CD59
- measurement context: Ala scan of CP-06, SPR, n = 1; read-out: KD
Peptide text beside a SMILES is read from it.
property: pKd
Note: pKd values are expressed as the negative base-10 logarithm of concentration in M.

CC(C)[C@@H]1NC(=O)[C@H](CO)NC(=O)[C@H](CO)NC(=O)[C@H](CCCNC(=N)N)NC(=O)[C@H](CC(N)=O)NC(=O)CNC(=O)[C@H](Cc2c[nH]c3ccccc23)NC(=O)[C@H]([C@@H](C)O)NC(=O)[C@H](Cc2c[nH]c3ccccc23)NC(=O)[C@H](CO)NC(=O)[C@@H](Cc2ccc(O)cc2)NC(=O)CSC[C@@H](C(N)=O)NC(=O)CNC(=O)[C@H](C)NC1=O [CP-06-R12A] (HELM PEPTIDE1{[O=C(C[*:3])[*:2]].[dY].S.W.T.W.G.N.R.S.S.V.A.G.C.[am]}$PEPTIDE1,PEPTIDE1,1:R3-15:R3$$$V2.0); 7.01
CC(C)[C@@H]1NC(=O)[C@H](CO)NC(=O)[C@H](CO)NC(=O)[C@H](CCCNC(=N)N)NC(=O)[C@H](CC(N)=O)NC(=O)CNC(=O)[C@H](Cc2c[nH]c3ccccc23)NC(=O)[C@H]([C@@H](C)O)NC(=O)[C@H](C)NC(=O)[C@H](CO)NC(=O)[C@@H](Cc2ccc(O)cc2)NC(=O)CSC[C@@H](C(N)=O)NC(=O)CNC(=O)[C@H](CCCNC(=N)N)NC1=O [CP-06-W3A] (HELM PEPTIDE1{[O=C(C[*:3])[*:2]].[dY].S.A.T.W.G.N.R.S.S.V.R.G.C.[am]}$PEPTIDE1,PEPTIDE1,1:R3-15:R3$$$V2.0); 5.92
CC(C)[C@@H]1NC(=O)[C@H](CO)NC(=O)[C@H](C)NC(=O)[C@H](CCCNC(=N)N)NC(=O)[C@H](CC(N)=O)NC(=O)CNC(=O)[C@H](Cc2c[nH]c3ccccc23)NC(=O)[C@H]([C@@H](C)O)NC(=O)[C@H](Cc2c[nH]c3ccccc23)NC(=O)[C@H](CO)NC(=O)[C@@H](Cc2ccc(O)cc2)NC(=O)CSC[C@@H](C(N)=O)NC(=O)CNC(=O)[C@H](CCCNC(=N)N)NC1=O [CP-06-S9A] (HELM PEPTIDE1{[O=C(C[*:3])[*:2]].[dY].S.W.T.W.G.N.R.A.S.V.R.G.C.[am]}$PEPTIDE1,PEPTIDE1,1:R3-15:R3$$$V2.0); 7.66
CC(C)[C@@H]1NC(=O)[C@H](CO)NC(=O)[C@H](CO)NC(=O)[C@H](CCCNC(=N)N)NC(=O)[C@H](CC(N)=O)NC(=O)CNC(=O)[C@H](Cc2c[nH]c3ccccc23)NC(=O)[C@H]([C@@H](C)O)NC(=O)[C@H](Cc2c[nH]c3ccccc23)NC(=O)[C@H](CO)NC(=O)[C@H](C)NC(=O)CSC[C@@H](C(N)=O)NC(=O)CNC(=O)[C@H](CCCNC(=N)N)NC1=O [CP-06-d-Y1A] (HELM PEPTIDE1{[O=C(C[*:3])[*:2]].A.S.W.T.W.G.N.R.S.S.V.R.G.C.[am]}$PEPTIDE1,PEPTIDE1,1:R3-15:R3$$$V2.0); 6.18
CC(C)[C@@H]1NC(=O)[C@H](CO)NC(=O)[C@H](CO)NC(=O)[C@H](CCCNC(=N)N)NC(=O)[C@H](CC(N)=O)NC(=O)CNC(=O)[C@H](Cc2c[nH]c3ccccc23)NC(=O)[C@H]([C@@H](C)O)NC(=O)[C@H](Cc2c[nH]c3ccccc23)NC(=O)[C@H](C)NC(=O)[C@@H](Cc2ccc(O)cc2)NC(=O)CSC[C@@H](C(N)=O)NC(=O)CNC(=O)[C@H](CCCNC(=N)N)NC1=O [CP-06-S2A] (HELM PEPTIDE1{[O=C(C[*:3])[*:2]].[dY].A.W.T.W.G.N.R.S.S.V.R.G.C.[am]}$PEPTIDE1,PEPTIDE1,1:R3-15:R3$$$V2.0); 7.89

stdin: Requested read-out: pKd. Entry: CC(C)[C@@H]1NC(=O)[C@H](CO)NC(=O)[C@H](CO)NC(=O)[C@H](CCCNC(=N)N)NC(=O)[C@H](CC(N)=O)NC(=O)CNC(=O)[C@H](C)NC(=O)[C@H]([C@@H](C)O)NC(=O)[C@H](Cc2c[nH]c3ccccc23)NC(=O)[C@H](CO)NC(=O)[C@@H](Cc2ccc(O)cc2)NC(=O)CSC[C@@H](C(N)=O)NC(=O)CNC(=O)[C@H](CCCNC(=N)N)NC1=O [CP-06-W5A] (HELM PEPTIDE1{[O=C(C[*:3])[*:2]].[dY].S.W.T.A.G.N.R.S.S.V.R.G.C.[am]}$PEPTIDE1,PEPTIDE1,1:R3-15:R3$$$V2.0)
stdout: 6.68

stdin: Requested read-out: pKd. Entry: CC(C)[C@@H]1NC(=O)[C@H](CO)NC(=O)[C@H](CO)NC(=O)[C@H](C)NC(=O)[C@H](CC(N)=O)NC(=O)CNC(=O)[C@H](Cc2c[nH]c3ccccc23)NC(=O)[C@H]([C@@H](C)O)NC(=O)[C@H](Cc2c[nH]c3ccccc23)NC(=O)[C@H](CO)NC(=O)[C@@H](Cc2ccc(O)cc2)NC(=O)CSC[C@@H](C(N)=O)NC(=O)CNC(=O)[C@H](CCCNC(=N)N)NC1=O [CP-06-R8A] (HELM PEPTIDE1{[O=C(C[*:3])[*:2]].[dY].S.W.T.W.G.N.A.S.S.V.R.G.C.[am]}$PEPTIDE1,PEPTIDE1,1:R3-15:R3$$$V2.0)
stdout: 7.74

stdin: Requested read-out: pKd. Entry: CC(C)[C@@H]1NC(=O)[C@H](CO)NC(=O)[C@H](CO)NC(=O)[C@H](CCCNC(=N)N)NC(=O)[C@H](CC(N)=O)NC(=O)CNC(=O)[C@H](Cc2c[nH]c3ccccc23)NC(=O)[C@H](C)NC(=O)[C@H](Cc2c[nH]c3ccccc23)NC(=O)[C@H](CO)NC(=O)[C@@H](Cc2ccc(O)cc2)NC(=O)CSC[C@@H](C(N)=O)NC(=O)CNC(=O)[C@H](CCCNC(=N)N)NC1=O [CP-06-T4A] (HELM PEPTIDE1{[O=C(C[*:3])[*:2]].[dY].S.W.A.W.G.N.R.S.S.V.R.G.C.[am]}$PEPTIDE1,PEPTIDE1,1:R3-15:R3$$$V2.0)
stdout: 7.74

stdin: Requested read-out: pKd. Entry: CC(C)[C@@H]1NC(=O)[C@H](CO)NC(=O)[C@H](CO)NC(=O)[C@H](CCCNC(=N)N)NC(=O)[C@H](C)NC(=O)CNC(=O)[C@H](Cc2c[nH]c3ccccc23)NC(=O)[C@H]([C@@H](C)O)NC(=O)[C@H](Cc2c[nH]c3ccccc23)NC(=O)[C@H](CO)NC(=O)[C@@H](Cc2ccc(O)cc2)NC(=O)CSC[C@@H](C(N)=O)NC(=O)CNC(=O)[C@H](CCCNC(=N)N)NC1=O [CP-06-N7A] (HELM PEPTIDE1{[O=C(C[*:3])[*:2]].[dY].S.W.T.W.G.A.R.S.S.V.R.G.C.[am]}$PEPTIDE1,PEPTIDE1,1:R3-15:R3$$$V2.0)
stdout: 6.68
